# method: Cytotoxicity against human 293T cells assessed as reduction in cell viability incubated for 24 hrs by MTT assay
# Type: cell-based
# particulars: HEK-293T cells
outcome measure: CC50 at 24 h (µM)

INSERT INTO results (structure, measurement_unit, recorded_result) VALUES
  ('Cc1ccc(-c2nn(-c3ccccc3)cc2-c2nc3ccccc3n2C(=O)c2cncc(C)c2)cc1', 'µM', 155),
  ('Cc1ccc(C(=O)n2c(-c3cn(-c4ccccc4)nc3-c3ccc(C(F)(F)F)cc3)nc3ccccc32)cn1', 'µM', 153),
  ('Cc1cccc(C(=O)n2c(-c3cn(-c4ccccc4)nc3-c3ccc(F)cc3)nc3ccccc32)c1', 'µM', 148),
  ('Cc1ccc(-c2nn(-c3ccccc3)cc2-c2nc3ccccc3n2C(=O)c2cccnc2)cc1', 'µM', 189),
  ('Cc1ccc(C(=O)n2c(-c3cn(-c4ccccc4)nc3-c3ccc(C)cc3)nc3ccccc32)cc1', 'µM', 176),
  ('O=C(c1ccccc1)n1c(-c2cn(-c3ccccc3)nc2-c2ccc(F)cc2)nc2ccccc21', 'µM', 180),
  ('O=C(c1ccc(Cl)cc1)n1c(-c2cn(-c3ccccc3)nc2-c2ccc(C(F)(F)F)cc2)nc2ccccc21', 'µM', 181),
  ('Cc1ccc(-c2nn(-c3ccccc3)cc2-c2nc3ccccc3n2C(=O)c2ccccc2)cc1', 'µM', 204),
  ('Cc1ccc(-c2nn(-c3ccccc3)cc2-c2nc3ccccc3n2C(=O)c2ccc(C)nc2)cc1', 'µM', 145),
  ('Cc1cncc(C(=O)n2c(-c3cn(-c4ccccc4)nc3-c3ccc(C(F)(F)F)cc3)nc3ccccc32)c1', 'µM', 123),
  ('O=C(c1ccc(Cl)cc1)n1c(-c2cn(-c3ccccc3)nc2-c2ccc(F)cc2)nc2ccccc21', 'µM', 179),
  ('Cc1ccc(-c2nn(-c3ccccc3)cc2-c2nc3ccccc3n2C(=O)c2cccc(C)c2)cc1', 'µM', 195),
  ('Cc1ccc(C(=O)n2c(-c3cn(-c4ccccc4)nc3-c3ccc(F)cc3)nc3ccccc32)cc1', 'µM', 178),
  ('Cc1cncc(C(=O)n2c(-c3cn(-c4ccccc4)nc3-c3ccc(F)cc3)nc3ccccc32)c1', 'µM', 119),
  ('O=C(c1ccccc1)n1c(-c2cn(-c3ccccc3)nc2-c2ccc(C(F)(F)F)cc2)nc2ccccc21', 'µM', 168),
  ('O=C(c1ccncc1)n1c(-c2cn(-c3ccccc3)nc2-c2ccc(F)cc2)nc2ccccc21', 'µM', 151),
  ('O=C(c1cccnc1)n1c(-c2cn(-c3ccccc3)nc2-c2ccc(C(F)(F)F)cc2)nc2ccccc21', 'µM', 158),
  ('Cc1cccc(C(=O)n2c(-c3cn(-c4ccccc4)nc3-c3ccc(C(F)(F)F)cc3)nc3ccccc32)c1', 'µM', 154);

----------
Entries and their IC50 values follow.
# measured target: 3-oxoacyl-[acyl-carrier-protein] synthase 3 (Escherichia coli, UniProt C3TDZ2)
# Sequence (C3TDZ2 whole entry): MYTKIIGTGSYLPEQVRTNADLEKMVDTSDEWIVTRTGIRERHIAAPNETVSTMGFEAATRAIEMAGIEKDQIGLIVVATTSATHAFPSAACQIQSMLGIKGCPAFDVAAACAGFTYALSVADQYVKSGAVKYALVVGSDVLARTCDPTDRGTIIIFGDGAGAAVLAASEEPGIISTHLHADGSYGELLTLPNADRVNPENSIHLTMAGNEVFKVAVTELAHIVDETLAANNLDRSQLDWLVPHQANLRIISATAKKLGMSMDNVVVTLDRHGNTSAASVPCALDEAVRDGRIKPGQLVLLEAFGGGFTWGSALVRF
# method: Inhibition of Escherichia coli FabH in presence of radiolabelled substrates and acetyl-coA by enzyme coupled FabD/FabH assay system
outcome measure: IC50 (µM)

INSERT INTO measurements (structure, recorded_result) VALUES
  ('O=C(c1ccccc1)n1c(-c2cn(-c3ccccc3)nc2-c2ccc(F)cc2)nc2ccccc21', 22.1),
  ('O=C(c1ccccc1)n1c(-c2cn(-c3ccccc3)nc2-c2ccc(C(F)(F)F)cc2)nc2ccccc21', 25.7),
  ('Cc1ccc(-c2nn(-c3ccccc3)cc2-c2nc3ccccc3n2C(=O)c2ccncc2)cc1', 30.3),
  ('Cc1ccc(C(=O)n2c(-c3cn(-c4ccccc4)nc3-c3ccc(C(F)(F)F)cc3)nc3ccccc32)cc1', 31.8);
